quantity_measured: melting point

Solved entries (count: 3):
compound	melting point
Cc1cccc2c1N(CC(=O)C1CC1)C(=O)C(NC(=O)Nc1cccc(-c3nnn[nH]3)c1)N=C2C1CCCCC1 (stereo not given)	227 to 233 °C
COc1cc(C)c(Cl)cc1C(=O)Cl	106 to 107 °C
CCN(CC)CCNC(=O)c1cc2cc(I)ccc2[nH]1	208 to 210 °C

IN: Param item = C[C@H](COc1ccc(C=C2SC(=S)N(CC(=O)O)C2=O)cc1O[C@@H](c1ccccc1)C(F)(F)F)c1ccccc1 ; retrieve measured melting point.
OUT: 73 to 80 °C

---

quantity_measured: melting point

Solved entries (count: 5):
molecule	melting point
O=C(OCc1ccccc1)N1CCC(c2cc3ccccc3c(=O)[nH]2)CC1	179 to 181 °C
CCC(CC(=O)NC(=O)OC(C)(C)C)Nc1ccccc1 (stereo not given)	105 to 106 °C
CCc1c(Cc2[nH]c(Cc3[nH]c(C=O)c(C)c3CC)c(CC)c2CC)[nH]c(C=O)c1C	202 to 203 °C
CC(C)(C)c1ccc(C(=O)Nc2cc[nH]c(=O)n2)cc1	> 260 °C
COc1ccc(C(=O)Nc2ccc3ccc(Oc4ccccc4C)nc3n2)cc1	153 °C

IN: Param item = CC(C)NCCn1c(-c2ccc(O)cc2)cc2c1CCCC2 ; retrieve measured melting point.
OUT: 149 to 150 °C

IN: Param item = Cc1ccc(-c2ccc(OC3SCC(O)C(O)C3O)c(F)n2)cn1 (stereo not given) ; retrieve measured melting point.
OUT: 189 to 190 °C

IN: Param item = COc1nc2cc([N+](=O)[O-])c(C)c(C(=O)Nc3ccccc3)c2nc1OC ; retrieve measured melting point.
OUT: 238 to 240 °C

IN: Param item = COCCc1nc2c(N)nc3ccccc3c2n1CCCNS(=O)(=O)c1ccc(C)cc1 ; retrieve measured melting point.
OUT: 189 to 191 °C

IN: Param item = Cc1cccc(C=CCC(CCC(=O)O)(C(=O)C=Cc2ccc(Cl)cc2)c2ccccc2)c1 (stereo not given) ; retrieve measured melting point.
OUT: 135 to 144 °C
